- System: NOMO1
- assay.explanation: cell viability relative to DMSO control; higher = less cytotoxic
- details: RPMI 5 mM glucose + 10% dialyzed FBS; 48 h; 0.569 µM
readout.label: cell viability (%)

INSERT INTO measurements (molecule, unit_text, result) VALUES
  ('CC(=O)O[C@H]1C(=O)[C@]2(C)[C@@H](O)C[C@H]3OC[C@@]3(OC(C)=O)C2[C@H](OC(=O)C4=CC=CC=C4)[C@]5(O)C[C@H](OC(=O)[C@H](O)[C@@H](NC(=O)C6=CC=CC=C6)C7=CC=CC=C7)\C(=C1/C5(C)C)C (some centres not stated)', '%', 29.7),
  ('O=NN(CCCl)C(=O)NCCCl', '%', 108),
  ('CC/C(=C(/c1ccc(O)cc1)c1ccc(OCCNC)cc1)c1ccccc1', '%', 111),
  ('CNC(=O)c1ccc(-c2cnc3ncc(Cc4ccc5ncccc5c4)n3n2)cc1F', '%', 129),
  ('CNC1CCC(N(Cc2cccc(-c3ccncc3)c2)C(=O)c2sc3ccccc3c2Cl)CC1 (configuration not stated)', '%', 95.9),
  ('Cc1ccccc1C(C(=O)NC1CCCCC1)N(C(=O)Cn1ccnc1C)c1cccc(F)c1 (configuration not stated)', '%', 100),
  ('C/C=C1\NC(=O)[C@H]2CSSCC/C=C\[C@H](CC(=O)N[C@H](C(C)C)C(=O)N2)OC(=O)[C@H](C(C)C)NC1=O', '%', 4.41),
  ('CC(C)[C@@H](N(CCCN)C(=O)C1=CC=C(C)C=C1)C/2=N/C3=CC(=CC=C3C(=O)N2CC4=CC=CC=C4)Cl', '%', 18.7),
  ('CC(C)NCC(O)COc1ccc(COCCOC(C)C)cc1 (configuration not stated)', '%', 111),
  ('OC[C@H]1O[C@@H](O[C@@H]2[C@@H](CO)O[C@](O)(CO)[C@H]2O)[C@H](O)[C@@H](O)[C@H]1O', '%', 100),
  ('CC(=O)N(C)c1cccc(-c2ccnc3c(C(=O)c4cccs4)cnn23)c1', '%', 99.4),
  ('CC1=CC=CC=C1N2\C(=N/C3=C(C(=CC=C3)C)C2=O)C[N]4C=NC5=C4N=CN=C5N', '%', 94.8),
  ('COc1nccc(-c2c(-c3ccc(F)cc3)ncn2C2CCNCC2)n1', '%', 108),
  ('O=NN(CCCl)C(=O)NC1CCCCC1', '%', 113),
  ('CN1[C@@H]2CC[C@H]1CC(OC(=O)c1c[nH]c3ccccc13)C2 (some centres not stated)', '%', 113),
  ('CCN(CC)CC#CCOC(=O)C(O)(c1ccccc1)C1CCCCC1 (configuration not stated)', '%', 140),
  ('CN(C)c1ccc(O)c2c1C[C@H]1C[C@H]3[C@H](N(C)C)C(O)=C(C(N)=O)C(=O)[C@@]3(O)C(O)=C1C2=O', '%', 92.8);

---

- Test system: P12-Ichikawa
- assay.explanation: cell viability relative to DMSO control; higher = less cytotoxic
- details: RPMI 5 mM glucose + 10% FBS; 48 h; 0.00234 µM
The following compounds are listed with their measured cell viability values.
readout.label: cell viability

INSERT INTO assay_data (compound, result) VALUES
  ('COc1nccc(-c2c(-c3ccc(F)cc3)ncn2C2CCNCC2)n1', '112%'),
  ('CC1(C)CC(=O)c2c(C(F)(F)F)nn(-c3ccc(C(N)=O)c(NC4CCC(O)CC4)c3)c2C1 (centres undefined)', '93.5%'),
  ('CCC1(C)CC(=O)NC1=O (centres undefined)', '105%'),
  ('CCCCn1c(=O)n(Cc2ccccc2F)c(=O)c2nc(Cc3ccc(NC(C)=O)cc3)[nH]c21', '87.8%'),
  ('O=NN(CCCl)C(=O)NCCCl', '97.9%'),
  ('CC[C@H](CC#N)OC(=O)N[C@@H](C)c1cccc(NC(=O)Nc2ccc(-c3cnco3)c(OC)c2)c1', '121%'),
  ('CC(C)C(C)/C=C/C(C)C1CCC2C3=CC=C4CC(O)CCC4(C)C3CCC21C (centres undefined)', '99.4%'),
  ('OC(=O)C1=CC=C(NC2=NC3=C(C\N=C(/C4=CC(=CC=C34)Cl)C5=C(F)C=CC=C5F)C=N2)C=C1', '99.1%'),
  ('Cl.Cl.Cl.O[C@@H](COc1cccc2ncccc12)CN1CCN([C@@H]2c3ccccc3[C@@H]3[C@H](c4ccccc42)C3(F)F)CC1', '79.1%');
